FYI, the data here is from PubChem BioAssay (NCI).

# TGI listing for each entry below
Test system: 786-0 renal
Test Summary: NCI tumour cell line growth inhibition, 48 h
Readout: TGI

smiles_string=O=C(O)c1ccc(Nc2nc3ccccc3nc2-c2cccs2)cc1 readout=TGI reported_value="> 100 µM"
smiles_string=COc1ccc(C2=C(N)c3c(OC)cccc3C2=O)cc1 readout=TGI reported_value="> 100 µM"
smiles_string=Cc1cccc(C)c1NC(=S)NC=C(C(N)=O)C(N)=O readout=TGI reported_value="> 100 µM"
smiles_string=COc1ccc2cc3[n+](cc2c1OC)CCc1cc(O)c(O)cc1-3 readout=TGI reported_value="> 100 µM"
smiles_string=COC1=C(N2CC2)C(=O)c2nc3n(c2C1=O)CCC3 readout=TGI reported_value="1.03 µM"
smiles_string=O=C([CH-]C(=O)c1ccccc1)c1ccccc1.O=C([CH-]C(=O)c1ccccc1)c1ccccc1.O=C([CH-]C(=O)c1ccccc1)c1ccccc1.[OH3+].[Y+3] readout=TGI reported_value="21.8 µM"
smiles_string=NC(=O)c1ccc2c(-c3ccnc(NCCCO)n3)c(-c3ccc(F)cc3)nn2c1 readout=TGI reported_value="> 25 µM"
smiles_string=Cc1cc(N2CCN(c3ccnc4cc(Cl)ccc34)CC2)nc(NC2CCCCC2)n1 readout=TGI reported_value="3.05 µM"
smiles_string=CCN(CC)CCNC(=O)c1nn(C)c(=S)[nH]c1=S readout=TGI reported_value="> 100 µM"
smiles_string=CCc1nc(N)nc(C(=O)NCCNC(=O)c2nc(N)nc(CC)c2C)c1C readout=TGI reported_value="> 100 µM"

---

Test system: TK-10 renal
Test Summary: NCI tumour cell line growth inhibition, 48 h
# TGI listing for each entry below
Readout: TGI

compound=NC1CCCCC1N.O=S(=O)([O-])CCCN1CCOCC1.O=S(=O)([O-])CCCN1CCOCC1.[Pt+4] readout=TGI reported_value="> 100 µM"
compound=Nc1ccc2c3c(n(CCCCl)c(=O)c2c1)-c1cc2c(cc1C3=O)OCO2 readout=TGI reported_value="> 100 µM"
compound=O=c1c2cc([N+](=O)[O-])ccc2n2n1Cc1ccccc1C2 readout=TGI reported_value="> 100 µM"
compound="C[C@]12CC[C@H](OCCC#N)CC1=CC[C@@H]1C2CC[C@]2(C)/C(=N/OCCC#N)CCC12 (stereo not given in full)" readout=TGI reported_value="> 88.6 µM"
compound="COc1cc(C(c2cc3c(cc2O)OCO3)N2CCCCC2)cc(OC)c1OC (stereo not given)" readout=TGI reported_value="31.2 µM"

---

# TGI listing for each entry below
System: M14 melanoma
Test Summary: NCI tumour cell line growth inhibition, 48 h
Readout: TGI

molecule=COC(=O)C1=Cc2cc(OC)c(O)cc2[C@@H](c2ccc(O)c(OC)c2)[C@@H]1C(=O)OC reported_value="> 100 µM"
molecule="CC(=O)N(CCc1ccccc1)C(C#N)c1ccc(OCCCCCCCCCCOc2ccc(C(C#N)N(CCc3ccccc3)C(C)=O)cc2)cc1 (stereo not drawn)" reported_value="> 100 µM"
molecule=COc1ccc(-c2ccc(/C=N/n3c(COc4ccc(Cl)cc4Cl)nn(CN4CCN(C)CC4)c3=S)o2)c([N+](=O)[O-])c1 reported_value="53.9 µM"
molecule="Cc1cc(N2CCCC2)nc(NC2CCCC(Nc3ccnc4cc(Cl)ccc34)C2)n1 (stereo not drawn)" reported_value="2.51 µM"
molecule=C=CCN1C=CC(=O)[C@H](O[Si](C)(C)C(C)(C)C)[C@@H]1/C=C/c1ccccc1 reported_value="27.5 µM"
molecule="CC(C)C1CCC/C=C/C=C/C=C/C=C/C(OC2OC(C)C(O)C(N)C2O)CC2OC(O)(CC(O)CC(O)C(O)CCC(=O)O1)CC(O)C2C(=O)O (stereo not drawn)" reported_value="> 52.5 µM"
molecule=CN(C)C(=O)Nc1cc2c3c(c1)CCCN3CCC2 reported_value="> 10 µM"
molecule=CC(=O)/C(=C\C1=CCCO1)C(=O)Nc1ccccc1C reported_value="> 100 µM"

---

System: M14 melanoma
Test Summary: NCI tumour cell line growth inhibition, 48 h
# TGI listing for each entry below
Readout: TGI

compound="COC(=O)C12CC(c3ccccc31)C1C(=O)OC(=O)C12 (stereo unspecified)" assay_system="M14 melanoma" reported_value="> 100 µM"
compound=O=c1[nH]ccc2nc(N3CCC(O)CC3)nc(Nc3cccc(C(F)(F)F)c3)c12 assay_system="M14 melanoma" reported_value="8.23 µM"
compound=Cc1cc(-c2nnc(N)nc2-c2ccc(F)cc2)cc(Cl)n1 assay_system="M14 melanoma" reported_value="> 100 µM"
compound=COc1cc(Nc2cnc3cc(F)c(F)cc3n2)cc(OC)c1 assay_system="M14 melanoma" reported_value="> 100 µM"
compound=COc1ccc(C2=C(c3ccc(OC)c(OC)c3)C(=O)OC2)cc1 assay_system="M14 melanoma" reported_value="> 36.4 µM"
compound=Cc1cccc(C)c1NC(=S)NC=C(C(N)=O)C(N)=O assay_system="M14 melanoma" reported_value="> 100 µM"

---

System: SK-MEL-2 melanoma
Test Summary: NCI tumour cell line growth inhibition, 48 h
# GI50 listing for each entry below
Readout: GI50

smiles_string=c1cc(OCCN2CCCCC2)ccc1CNc1ccc2nc(CCC3CCCCC3)[nH]c2c1 reported_value="1.88 µM"
smiles_string=COc1c(Cl)c2c(c(OC)c1OC)-c1ccc(SC)c(=O)cc1[C@@H](NC(=O)OCC(F)(F)F)CC2 reported_value="4.2 µM"
smiles_string=CC[O-].CC[O-].O=C1C(c2ccccc2)=C([O-])c2ccccc21.O=C1C(c2ccccc2)=C([O-])c2ccccc21.[Ti+4] reported_value="> 100 µM"

---

Tested on: HOP-62 NSCLC
Test Summary: NCI tumour cell line growth inhibition, 48 h
# TGI listing for each entry below
Readout: TGI

compound=O=c1[nH]c(=S)[nH]n1C(=S)n1[nH]c(=S)[nH]c1=O reported_value="> 100 µM"
compound="CC(=O)NC1C(O)C(O)C(CO)OC1n1ncc(=O)[nH]c1=O (stereo unspecified)" reported_value="> 100 µM"
compound=O=C(Nc1ccc(F)cc1F)c1cc(Br)ccc1O reported_value="12.7 µM"
compound=Cc1cccc(Cl)c1NC(=O)/C=C/c1ccccc1 reported_value="> 100 µM"
compound="COC1CC(OC2CCC3(C)C(CCC45CCC(C6=CC(=O)OC6)C(C)(CCC43)C5=O)C2)OC(C)C1O (stereo unspecified)" reported_value="51.3 µM"
compound=COc1ccc(-c2nc3ncccn3c2/C=C/C(=O)c2cc(OC)c(OC)c(OC)c2)cc1 reported_value="10.3 µM"
compound=COc1ccc2cc(/C=N\NC(=O)Nc3cccc4ccccc34)ccc2c1 reported_value="28.7 µM"
compound=CC(=O)Nc1c(C)ccc2c1C(=O)c1ccccc1C2=O reported_value="> 100 µM"
compound=Nc1cn(Cc2ccccc2)c2nc(/C=C3/C=CC=CC3=O)c(O)n12 reported_value="> 100 µM"
compound=CN1CCCCCC(=N\O)/C(=N/O)CCCCC1 reported_value="> 100 µM"
compound=COC(=O)c1c2c(c(C)[n+]([O-])c1C)C(=O)C=C(NCc1ccc(OC)cc1)C2=O reported_value="7.84 µM"
compound=CC(C)CNc1nc(-c2ccccc2)nc2ccccc12 reported_value="31.5 µM"
compound=Cc1cc(I)cc(CN(C)CCN2CCCC2)c1O reported_value="87.5 µM"
compound=CCN(CC)CCNC(=O)c1nn(C)c(=S)[nH]c1=S reported_value="> 100 µM"
compound="COC(=O)C1[C@@H](C(=O)OC)C12C=Cc1ccccc1C=C2 (stereo partly specified)" reported_value="> 100 µM"
compound="CC(=O)OCC1OC(N2C(C)=C(C(C)=O)C(c3ccco3)C(C#N)=C2S)C(OC(C)=O)C(OC(C)=O)C1OC(C)=O (stereo unspecified)" reported_value="> 100 µM"
compound=CN(C(=O)Cc1ccc(Cl)c(Cl)c1)[C@@H]1CCCC[C@H]1[N+]1(C)CC=CC1 reported_value="> 100 µM"
compound="O=C([O][Hg][CH2]C1COCC([CH2][Hg][O]C(=O)c2ccccc2)O1)c1ccccc1 (stereo unspecified)" reported_value="31.1 µM"
compound=CNn1c(C)n[nH]c1=O reported_value="> 100 µM"
compound=COc1ccc2c(c1)CCc1[nH]c3ccccc3c1CCCC2 reported_value="> 10 µM"
compound="CCCCCC(CO)C(O)(C(F)(F)F)C(F)(F)F (stereo unspecified)" reported_value="> 10 µM"
compound=CC(=O)N/C(=C\c1cccc([N+](=O)[O-])c1)c1nc2c3c(ccc2[nH]1)C(=O)c1ccccc1C3=O reported_value="> 100 µM"
compound=COc1ccc2cc3[n+](cc2c1OC)CCc1cc(O)c(O)cc1-3 reported_value="> 100 µM"
compound=O=[N+]([O-])c1ccc2[nH]ncc2c1Cl reported_value="> 100 µM"
compound="C=CCC(C(=O)O)c1ccccc1 (stereo unspecified)" reported_value="> 100 µM"
compound=O=C(O)c1ccc(Nc2nc3ccccc3nc2-c2cccs2)cc1 reported_value="> 100 µM"
compound=NC(=N\N=C/c1cccc([N+](=O)[O-])c1)/C(N)=N\N=C/c1cccc([N+](=O)[O-])c1 reported_value="> 100 µM"
compound=Cc1cc(C)nc(NS(=O)(=O)c2ccc(Nc3c4ccc(Cl)cc4nc4c(C(=O)Nc5ccc(S(=O)(=O)N=C(N)N)cc5)cccc34)cc2)n1 reported_value="> 100 µM"
compound="CC1=CC(=O)C(=O)C2=C1OC1(C2)C(C)CCC2C3(C)CCC(O)C(C)(C)C3CCC21C (stereo unspecified)" reported_value="35 µM"
compound="Cc1cc(N2CCCC2)nc(NC2CCCC(Nc3ccnc4cc(Cl)ccc34)C2)n1 (stereo unspecified)" reported_value="2.95 µM"
compound="CCCC(C)C[C@@H](C)CC(C)/C=C(\\C)c1oc(=O)c(C)c(O)c1C (stereo partly specified) (tested in a mixture with another compound)" reported_value="36.5 µM"
compound=CCc1nc(N)nc(C(=O)NCCNC(=O)c2nc(N)nc(CC)c2C)c1C reported_value="> 100 µM"
compound=Cc1ccc(/C=C/C(=O)c2sc(-c3cccnc3)nc2C)cc1 reported_value="> 100 µM"
compound=CCN(CC)C(=S)SNCc1ccc(S(N)(=O)=O)cc1 reported_value="30.5 µM"
compound=COc1ccc2c(CN3CCC[C@H]3C(=O)O)cc3cc4c(cc3c2c1)OCO4 reported_value="86.1 µM"
compound=C=C(Br)CN(C(C)=O)C1CCCCC1 reported_value="> 100 µM"
compound="CCCCCCCCCCCCC(O)C1CCC(C(O)CCCCCCC(O)CCCCCCCC2=CC(C)OC2=O)O1 (stereo unspecified)" reported_value="> 100 µM"
compound="COc1cc(C2c3cc4c(cc3OC(Nc3ccccc3)C2C)OCO4)cc(OC)c1OC (stereo unspecified)" reported_value="9.89 µM"
compound=COc1cc(C=Nc2ccc(C(C)C)cc2)cc(OC)c1OC reported_value="> 100 µM"
compound=Cc1nc2cc(N)c(F)cc2[nH]1 reported_value="> 100 µM"
compound=CC(=O)/C(=C\C1=CCCO1)C(=O)Nc1ccccc1C reported_value="> 100 µM"
